meta.source: paper PMC6458995

Target: p38g MAPK (Homo sapiens, UniProt P53778)
Construct: lines 1-140) and Reaction Biology
Sequence (P53778 1-367): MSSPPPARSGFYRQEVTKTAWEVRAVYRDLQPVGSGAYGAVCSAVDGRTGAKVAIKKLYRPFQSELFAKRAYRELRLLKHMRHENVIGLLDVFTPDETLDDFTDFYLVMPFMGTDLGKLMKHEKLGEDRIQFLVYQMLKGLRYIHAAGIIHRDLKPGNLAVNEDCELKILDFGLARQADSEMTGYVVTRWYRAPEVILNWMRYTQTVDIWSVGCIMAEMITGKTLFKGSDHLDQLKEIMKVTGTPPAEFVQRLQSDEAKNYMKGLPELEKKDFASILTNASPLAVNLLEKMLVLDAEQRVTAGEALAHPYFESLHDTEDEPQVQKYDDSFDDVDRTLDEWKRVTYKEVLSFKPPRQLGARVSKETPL
Assay: Dundee kinase panel
Format: biochemical
Conditions: read-out: residual activity
READOUT_LABEL: remaining activity at 1 µM

Query: I am curious: what remaining activity at 1 µM value has been reported for "COCCOc1ccc(-c2cn(-c3ccccc3)c3nc[nH]c(=O)c23)cc1" ?
Result: 117%

Query: I am curious: what remaining activity at 1 µM value has been reported for "Oc1ncnc2c1c(-c1ccccc1)cn2-c1ccccc1" ?
Result: 109%

Query: I am curious: what remaining activity at 1 µM value has been reported for "O=C1Nc2ccc(I)cc2/C1=C/c1cc(Br)c(O)c(Br)c1" ?
Result: 114%

Query: I am curious: what remaining activity at 1 µM value has been reported for "O=C1Cc2c([nH]c3ccc(Br)cc23)-c2ccccc2N1" ?
Result: 100%

====

Molecular target: LKB1 (Homo sapiens, UniProt Q15831)
Construct: lines 1-140) and Reaction Biology
Sequence (Q15831 whole entry): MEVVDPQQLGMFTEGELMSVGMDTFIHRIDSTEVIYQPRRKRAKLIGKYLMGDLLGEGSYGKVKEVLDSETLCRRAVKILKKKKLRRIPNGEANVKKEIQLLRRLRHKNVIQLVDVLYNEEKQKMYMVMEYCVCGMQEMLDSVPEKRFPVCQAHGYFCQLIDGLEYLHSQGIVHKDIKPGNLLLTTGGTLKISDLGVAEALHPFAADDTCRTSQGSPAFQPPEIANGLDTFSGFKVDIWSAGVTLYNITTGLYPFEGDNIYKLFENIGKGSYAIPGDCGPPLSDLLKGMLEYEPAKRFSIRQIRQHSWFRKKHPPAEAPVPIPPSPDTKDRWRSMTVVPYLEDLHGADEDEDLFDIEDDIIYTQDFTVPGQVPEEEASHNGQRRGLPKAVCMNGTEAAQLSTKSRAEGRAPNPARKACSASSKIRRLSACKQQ
Sequence (Q7RTN6 whole entry partner): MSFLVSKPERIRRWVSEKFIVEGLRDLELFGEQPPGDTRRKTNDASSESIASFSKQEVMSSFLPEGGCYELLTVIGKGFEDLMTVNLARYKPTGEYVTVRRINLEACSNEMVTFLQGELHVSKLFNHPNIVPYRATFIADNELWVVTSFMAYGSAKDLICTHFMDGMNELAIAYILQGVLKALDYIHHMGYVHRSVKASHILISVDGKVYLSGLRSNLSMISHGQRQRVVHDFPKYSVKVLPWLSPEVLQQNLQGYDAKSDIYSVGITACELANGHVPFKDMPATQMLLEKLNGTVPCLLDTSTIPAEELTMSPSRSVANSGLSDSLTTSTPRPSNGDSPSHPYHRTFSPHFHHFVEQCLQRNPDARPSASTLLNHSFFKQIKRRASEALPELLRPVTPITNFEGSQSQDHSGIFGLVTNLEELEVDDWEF
Sequence (Q9Y376 whole entry partner): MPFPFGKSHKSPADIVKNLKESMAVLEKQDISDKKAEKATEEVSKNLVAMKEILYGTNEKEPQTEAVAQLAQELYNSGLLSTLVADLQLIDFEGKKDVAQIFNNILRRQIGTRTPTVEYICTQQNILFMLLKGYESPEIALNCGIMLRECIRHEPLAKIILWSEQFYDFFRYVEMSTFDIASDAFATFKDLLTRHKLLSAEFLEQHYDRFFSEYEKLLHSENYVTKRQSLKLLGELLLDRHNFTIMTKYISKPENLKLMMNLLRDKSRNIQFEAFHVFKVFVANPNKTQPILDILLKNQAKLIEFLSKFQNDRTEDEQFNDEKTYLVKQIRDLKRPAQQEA
Experiment: Dundee kinase panel
Format: biochemical
Settings: read-out: residual activity
Method: Compounds were screened at 1 μM. For key hits, pIC50 values were then determined by HTRF as above. […] Stability in mouse and human liver microsomes was determined by Cyprotex.
READOUT_LABEL: remaining activity at 1 µM (%)
Give just the number in %; leave the unit off.

Query: I am curious: what remaining activity at 1 µM value has been reported for "O=C1Cc2c([nH]c3ccc(Br)cc23)-c2ccccc2N1" ?
Result: 89

Query: I am curious: what remaining activity at 1 µM value has been reported for "COCCOc1ccc(-c2cn(-c3ccccc3)c3nc[nH]c(=O)c23)cc1" ?
Result: 105

Query: I am curious: what remaining activity at 1 µM value has been reported for "O=C1Nc2ccc(I)cc2/C1=C/c1cc(Br)c(O)c(Br)c1" ?
Result: 68

Query: I am curious: what remaining activity at 1 µM value has been reported for "Oc1ncnc2c1c(-c1ccccc1)cn2-c1ccccc1" ?
Result: 96

====

molecular target: MAPKAP-K3 (Homo sapiens); construct: lines 1-140) and Reaction Biology; test: Dundee kinase panel; assay type: biochemical; details: read-out: residual activity
Sequence (Q16644 whole entry): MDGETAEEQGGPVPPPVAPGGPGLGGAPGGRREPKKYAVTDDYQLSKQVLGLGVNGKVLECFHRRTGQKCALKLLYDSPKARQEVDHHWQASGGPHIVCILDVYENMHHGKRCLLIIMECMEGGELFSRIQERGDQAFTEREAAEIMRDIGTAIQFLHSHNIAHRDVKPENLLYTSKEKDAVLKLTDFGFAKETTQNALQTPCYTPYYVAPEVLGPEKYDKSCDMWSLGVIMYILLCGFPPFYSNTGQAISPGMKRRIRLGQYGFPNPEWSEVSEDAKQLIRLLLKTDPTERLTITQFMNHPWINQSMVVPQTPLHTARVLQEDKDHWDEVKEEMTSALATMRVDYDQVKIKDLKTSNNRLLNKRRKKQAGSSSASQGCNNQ
READOUT_LABEL: remaining activity at 1 µM (%)
Give just the number in %; leave the unit off.

Query: I am curious: what remaining activity at 1 µM value has been reported for COCCOc1ccc(-c2cn(-c3ccccc3)c3nc[nH]c(=O)c23)cc1 [DMX-5804] ?
Result: 104

Query: I am curious: what remaining activity at 1 µM value has been reported for O=C1Cc2c([nH]c3ccc(Br)cc23)-c2ccccc2N1 [Kenpaullone] ?
Result: 83

Query: I am curious: what remaining activity at 1 µM value has been reported for O=C1Nc2ccc(I)cc2/C1=C/c1cc(Br)c(O)c(Br)c1 [GW5074] ?
Result: 71

Query: I am curious: what remaining activity at 1 µM value has been reported for Oc1ncnc2c1c(-c1ccccc1)cn2-c1ccccc1 [F1386-0303] ?
Result: 104

====

Biological target: GSK3b (Homo sapiens)
Construct: lines 1-140) and Reaction Biology
Sequence (P49841 whole entry): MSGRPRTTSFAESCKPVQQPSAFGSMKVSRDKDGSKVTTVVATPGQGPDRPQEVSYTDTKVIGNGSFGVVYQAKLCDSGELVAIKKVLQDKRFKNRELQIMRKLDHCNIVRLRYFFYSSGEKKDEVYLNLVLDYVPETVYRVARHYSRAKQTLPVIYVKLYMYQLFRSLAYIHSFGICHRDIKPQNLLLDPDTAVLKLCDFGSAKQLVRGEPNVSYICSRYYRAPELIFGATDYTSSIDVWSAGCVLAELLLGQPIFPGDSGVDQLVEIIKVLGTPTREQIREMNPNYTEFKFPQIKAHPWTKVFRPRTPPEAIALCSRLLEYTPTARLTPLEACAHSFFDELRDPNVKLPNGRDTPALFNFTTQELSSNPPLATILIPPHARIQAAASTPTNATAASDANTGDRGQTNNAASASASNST
Test: Dundee kinase panel
Type: biochemical
Details: read-out: residual activity
Experimental: Compounds were screened at 1 μM. For key hits, pIC50 values were then determined by HTRF as above. […] Stability in mouse and human liver microsomes was determined by Cyprotex.
Provide the reported remaining activity at 1 µM of each item.

Query: I am curious: what remaining activity at 1 µM value has been reported for "COCCOc1ccc(-c2cn(-c3ccccc3)c3nc[nH]c(=O)c23)cc1" ?
Result: 102%

Query: I am curious: what remaining activity at 1 µM value has been reported for "Oc1ncnc2c1c(-c1ccccc1)cn2-c1ccccc1" ?
Result: 127%

Query: I am curious: what remaining activity at 1 µM value has been reported for "O=C1Cc2c([nH]c3ccc(Br)cc23)-c2ccccc2N1" ?
Result: 6%

Query: I am curious: what remaining activity at 1 µM value has been reported for "O=C1Nc2ccc(I)cc2/C1=C/c1cc(Br)c(O)c(Br)c1" ?
Result: 42%

====

molecular target: IRR (Homo sapiens); construct: lines 1-140) and Reaction Biology; assay: Dundee kinase panel; assay type: biochemical; details: read-out: residual activity
Provide the reported remaining activity at 1 µM of each item.
Give just the number in %; leave the unit off.

Query: I am curious: what remaining activity at 1 µM value has been reported for Oc1ncnc2c1c(-c1ccccc1)cn2-c1ccccc1 [F1386-0303] ?
Result: 95

Query: I am curious: what remaining activity at 1 µM value has been reported for COCCOc1ccc(-c2cn(-c3ccccc3)c3nc[nH]c(=O)c23)cc1 [DMX-5804] ?
Result: 96

Query: I am curious: what remaining activity at 1 µM value has been reported for O=C1Nc2ccc(I)cc2/C1=C/c1cc(Br)c(O)c(Br)c1 [GW5074] ?
Result: 61

Query: I am curious: what remaining activity at 1 µM value has been reported for O=C1Cc2c([nH]c3ccc(Br)cc23)-c2ccccc2N1 [Kenpaullone] ?
Result: 89

====

biological target: MARK3 (Homo sapiens); construct: lines 1-140) and Reaction Biology; experiment: Dundee kinase panel; assay type: biochemical; conditions: read-out: residual activity
Sequence (P27448 whole entry): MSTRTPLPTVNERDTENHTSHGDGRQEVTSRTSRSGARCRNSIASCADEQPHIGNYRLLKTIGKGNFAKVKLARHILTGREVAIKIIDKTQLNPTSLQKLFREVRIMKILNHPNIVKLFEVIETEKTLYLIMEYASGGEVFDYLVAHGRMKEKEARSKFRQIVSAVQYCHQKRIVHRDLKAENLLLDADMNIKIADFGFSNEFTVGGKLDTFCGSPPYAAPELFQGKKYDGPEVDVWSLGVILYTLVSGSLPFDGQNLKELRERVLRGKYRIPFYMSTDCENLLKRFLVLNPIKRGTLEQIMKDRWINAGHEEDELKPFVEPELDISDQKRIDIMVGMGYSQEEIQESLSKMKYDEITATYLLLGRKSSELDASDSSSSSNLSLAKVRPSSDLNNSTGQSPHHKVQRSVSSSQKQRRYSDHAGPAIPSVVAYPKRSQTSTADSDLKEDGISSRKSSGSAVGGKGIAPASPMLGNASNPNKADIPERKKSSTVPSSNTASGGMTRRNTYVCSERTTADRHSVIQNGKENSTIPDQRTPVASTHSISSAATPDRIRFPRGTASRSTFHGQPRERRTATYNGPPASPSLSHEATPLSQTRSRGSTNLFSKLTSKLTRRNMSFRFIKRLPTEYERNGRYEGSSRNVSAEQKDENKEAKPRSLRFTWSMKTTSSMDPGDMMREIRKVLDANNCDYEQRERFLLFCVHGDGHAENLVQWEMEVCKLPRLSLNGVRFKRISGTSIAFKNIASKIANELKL
Provide the reported remaining activity at 1 µM of each item.
Give just the number in %; leave the unit off.

Query: I am curious: what remaining activity at 1 µM value has been reported for "COCCOc1ccc(-c2cn(-c3ccccc3)c3nc[nH]c(=O)c23)cc1" ?
Result: 88

Query: I am curious: what remaining activity at 1 µM value has been reported for "O=C1Nc2ccc(I)cc2/C1=C/c1cc(Br)c(O)c(Br)c1" ?
Result: 72

Query: I am curious: what remaining activity at 1 µM value has been reported for "Oc1ncnc2c1c(-c1ccccc1)cn2-c1ccccc1" ?
Result: 111

Query: I am curious: what remaining activity at 1 µM value has been reported for "O=C1Cc2c([nH]c3ccc(Br)cc23)-c2ccccc2N1" ?
Result: 62

====

Molecular target: CAMKKb (Homo sapiens)
Construct: lines 1-140) and Reaction Biology
Sequence (Q96RR4 whole entry): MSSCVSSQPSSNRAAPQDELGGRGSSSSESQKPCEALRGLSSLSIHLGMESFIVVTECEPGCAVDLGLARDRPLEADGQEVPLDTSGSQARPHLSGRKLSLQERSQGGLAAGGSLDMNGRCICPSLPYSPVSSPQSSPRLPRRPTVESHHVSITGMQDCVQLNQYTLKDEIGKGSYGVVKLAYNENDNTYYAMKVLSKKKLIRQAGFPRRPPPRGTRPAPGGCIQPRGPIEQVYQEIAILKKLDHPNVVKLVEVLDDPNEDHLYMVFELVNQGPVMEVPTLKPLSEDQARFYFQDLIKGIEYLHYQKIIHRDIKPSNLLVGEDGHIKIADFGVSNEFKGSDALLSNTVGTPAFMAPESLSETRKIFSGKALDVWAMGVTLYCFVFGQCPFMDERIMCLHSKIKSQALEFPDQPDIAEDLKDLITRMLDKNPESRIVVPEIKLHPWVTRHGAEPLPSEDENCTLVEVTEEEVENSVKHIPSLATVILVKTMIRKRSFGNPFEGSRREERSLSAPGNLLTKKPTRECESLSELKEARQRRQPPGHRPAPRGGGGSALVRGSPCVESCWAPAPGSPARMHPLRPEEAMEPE
Assay: Dundee kinase panel
Assay type: biochemical
Details: read-out: residual activity
Protocol: Compounds were screened at 1 μM. For key hits, pIC50 values were then determined by HTRF as above. […] Stability in mouse and human liver microsomes was determined by Cyprotex.
READOUT_LABEL: remaining activity at 1 µM (%)
Give just the number in %; leave the unit off.

Query: I am curious: what remaining activity at 1 µM value has been reported for "Oc1ncnc2c1c(-c1ccccc1)cn2-c1ccccc1" ?
Result: 98

Query: I am curious: what remaining activity at 1 µM value has been reported for "O=C1Nc2ccc(I)cc2/C1=C/c1cc(Br)c(O)c(Br)c1" ?
Result: 19

Query: I am curious: what remaining activity at 1 µM value has been reported for "O=C1Cc2c([nH]c3ccc(Br)cc23)-c2ccccc2N1" ?
Result: 72

Query: I am curious: what remaining activity at 1 µM value has been reported for "COCCOc1ccc(-c2cn(-c3ccccc3)c3nc[nH]c(=O)c23)cc1" ?
Result: 77

====

Provide the reported remaining activity at 1 µM of each item.
target: SRPK1 (Homo sapiens); construct: lines 1-140) and Reaction Biology; assay: Dundee kinase panel; type: biochemical; details: read-out: residual activity
Give just the number in %; leave the unit off.

Query: I am curious: what remaining activity at 1 µM value has been reported for Oc1ncnc2c1c(-c1ccccc1)cn2-c1ccccc1 [F1386-0303] ?
Result: 112

Query: I am curious: what remaining activity at 1 µM value has been reported for O=C1Cc2c([nH]c3ccc(Br)cc23)-c2ccccc2N1 [Kenpaullone] ?
Result: 36

Query: I am curious: what remaining activity at 1 µM value has been reported for O=C1Nc2ccc(I)cc2/C1=C/c1cc(Br)c(O)c(Br)c1 [GW5074] ?
Result: 8

Query: I am curious: what remaining activity at 1 µM value has been reported for COCCOc1ccc(-c2cn(-c3ccccc3)c3nc[nH]c(=O)c23)cc1 [DMX-5804] ?
Result: 91

====

molecular target: ABL (Homo sapiens, UniProt P00519); construct: lines 1-140) and Reaction Biology; assay: Dundee kinase panel; format: biochemical; conditions: read-out: residual activity
Sequence (P00519 whole entry): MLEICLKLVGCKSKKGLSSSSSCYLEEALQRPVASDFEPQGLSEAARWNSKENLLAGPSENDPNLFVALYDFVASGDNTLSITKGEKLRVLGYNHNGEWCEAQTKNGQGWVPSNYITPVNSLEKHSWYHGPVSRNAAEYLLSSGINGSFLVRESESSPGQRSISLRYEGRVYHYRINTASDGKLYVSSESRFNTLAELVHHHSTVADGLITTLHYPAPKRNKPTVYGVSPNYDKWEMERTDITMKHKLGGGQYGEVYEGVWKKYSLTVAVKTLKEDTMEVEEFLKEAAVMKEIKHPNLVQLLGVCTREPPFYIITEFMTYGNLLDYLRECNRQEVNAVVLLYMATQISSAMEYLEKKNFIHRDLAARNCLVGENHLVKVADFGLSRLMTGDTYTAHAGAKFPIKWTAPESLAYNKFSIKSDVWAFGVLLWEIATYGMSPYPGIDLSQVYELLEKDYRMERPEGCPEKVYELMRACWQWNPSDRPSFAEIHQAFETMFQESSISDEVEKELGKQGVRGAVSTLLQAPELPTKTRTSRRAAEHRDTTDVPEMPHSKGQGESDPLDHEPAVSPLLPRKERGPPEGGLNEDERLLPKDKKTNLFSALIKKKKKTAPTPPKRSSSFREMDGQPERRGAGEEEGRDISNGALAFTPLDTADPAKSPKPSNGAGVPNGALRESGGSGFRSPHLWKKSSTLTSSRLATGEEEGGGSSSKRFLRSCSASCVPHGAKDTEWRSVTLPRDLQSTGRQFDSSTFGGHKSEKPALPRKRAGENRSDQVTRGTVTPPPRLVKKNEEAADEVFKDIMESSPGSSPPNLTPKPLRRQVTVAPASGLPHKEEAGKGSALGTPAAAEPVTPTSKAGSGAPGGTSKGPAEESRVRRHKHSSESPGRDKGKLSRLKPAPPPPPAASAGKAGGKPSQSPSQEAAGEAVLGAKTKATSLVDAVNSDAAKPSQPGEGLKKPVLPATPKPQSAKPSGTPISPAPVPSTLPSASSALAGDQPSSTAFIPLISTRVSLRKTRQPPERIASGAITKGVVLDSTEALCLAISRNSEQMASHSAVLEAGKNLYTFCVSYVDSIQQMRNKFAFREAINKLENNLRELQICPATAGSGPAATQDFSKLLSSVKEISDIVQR
Provide the reported remaining activity at 1 µM of each item.
Give just the number in %; leave the unit off.

Query: I am curious: what remaining activity at 1 µM value has been reported for "COCCOc1ccc(-c2cn(-c3ccccc3)c3nc[nH]c(=O)c23)cc1" ?
Result: 79

Query: I am curious: what remaining activity at 1 µM value has been reported for "O=C1Cc2c([nH]c3ccc(Br)cc23)-c2ccccc2N1" ?
Result: 40

Query: I am curious: what remaining activity at 1 µM value has been reported for "O=C1Nc2ccc(I)cc2/C1=C/c1cc(Br)c(O)c(Br)c1" ?
Result: 58

Query: I am curious: what remaining activity at 1 µM value has been reported for "Oc1ncnc2c1c(-c1ccccc1)cn2-c1ccccc1" ?
Result: 94
